meta.source: the nanobody polyreactivity screen of Harvey et al. (2022)

test_summary: yeast display, Sf9 membrane polyspecificity reagent, FACS + sequencing; frameworks hold sequencing errors
readout: polyreactivity (PSR sort gate)

QVQLVESGGGLVQAGGSLRLSCAASGSIFYVYAMGWYIQAPGKERELVASIRWIGDRTYYADSVKGRFTISRDNAKNTVYLQMNSLKPEDTAVYYCAADPRYYGYYYLTPRYYYWGQGTQVTVSS : high polyreactivity
QVQLVESGGGLVQAGGSLRLSCAATGFIFAANAMGWYRQAPGKERELVAAINYRGSSTYYADSVKGRFTISRDNAKNTVYLQMNSLKPEDTAVYYCAARSGAQRGGGYWGQGTQVTVSS : high polyreactivity

###

test_summary: yeast display, Sf9 membrane polyspecificity reagent, FACS + sequencing; frameworks hold sequencing errors
readout: polyreactivity (PSR sort gate)

RVQLVESGGGLVKAGGSLRLSCAASGSIFYQYTMGWYRQAPGKERELVATISWSDVSTYYADSVKGRFTISRDNAKNTVYLQMNSLKPEDTAVYYCAALYWGWDRYYGYDYWGQGTQVTVSS : low polyreactivity
QVQLVESGGGLVQAGGSLRLSCAASGITLVTYAMGWYRQAPGKERELVAAISRSGGRTYYADSVKGRFTISRDNAKNTVDLQMNSLKPEDTAVYYCATRYHVGKDLYGYWGQGTQVTVSS : high polyreactivity
QVQLVESAAGLVQAGGSLRLSCAASGGIFWVYAMGWYRQAPGKERELVAAISNSDTSTSDADSVKGRFTISRDTAKNTVYLQMYSLKPEDTAVYNCNGDSPSLSGDIWGQGTQVTVTS : low polyreactivity
QVHLVESGGGLVQAGGSLRLSCAASGLIFARNAMGWYSQAPGKEREMVAAISRSGSTNYADSVKGRFTISRDNAKNTVYLQMNSLKPEDTAVYYCAADHARYLGFPRVDYWGQGTQVTVSS : low polyreactivity

Enquiry: Specify reported polyreactivity (PSR sort gate) for the sequence shown: QVQIVESGGGLVQAGGSLRLSCAASGSIFVVNAMGWYRQAPRKERELVAAIDWSGDTTYYADSEKGRFTISRDYAKNTVYFQMNSLKPEDTAVYYCAAEYEFHEYDYWGQGTQVTVSS
Return: high polyreactivity

Enquiry: // fetch polyreactivity (PSR sort gate) given entry QVQLVESGGGLVQAGASLRLSCAASGIIVHEYAMGWYRQAPGKERELVASISWNDGSTYADSVKGRFTISRDNAKITVYLQMNCLKPEDTAVYYCAADYPYYPFSSIYDYWGQGTQVTVSS
Return: low polyreactivity

Enquiry: Identify polyreactivity (PSR sort gate) associated with the sequence QVQLVESGGGLVQAGGSLRLSCAASGIIFYRYTMGWYRQAPGKERELVAAISSRGGSTYYADSVKGRFTISRDNAKNTVYLQMNSLKPEDTAVYYWNARSKRTARYNYWGQGTQVTVSS
Return: high polyreactivity

Enquiry: Item QVQLVESGGGLVQAGGSLRLSCAASGSIFVGKAMGWYRQAPGKERELVAAISSSGGRTYYADSVKGRFTISRDNAKNTVYLQMNSLKPEDTAVYYCAADVSYKVKSWSVYRYEYWGQGTQVTVSS : provide polyreactivity (PSR sort gate)
Return: high polyreactivity

Enquiry: State, in one line, measured polyreactivity (PSR sort gate) of QVQLVESGGGLVQAGGSLRLSCAASGFTFDYNGLGWYRQAPGKERELVAGIRWSGGSTYYADSVKGRFTISRDNAKNTVYLQMNSLKPEDTAVYYCATSQYGYRSWPGLYYWGQGTQVTVSS
Return: low polyreactivity

Enquiry: Complete the entry with polyreactivity (PSR sort gate) for QVQLVESGGRLVQAGGSLRLSCAASGRIFSINVMGWYRHAPGKERELVAAISKRGGSTYYADSVKGRFTISRDNAKNTVYLQMNSLKPEDTAVFYCAARRHYTYGNGPSRGGQMDYWGQGTQVTVSS
Return: high polyreactivity

Enquiry: Consider the sequence QVQLVESGGGLVQAGGSLRLSCAASGFTFPYNAMGWYRQAPGKERELVAAISSTGGITYYADSVKGRFTISRDNAKNTVYLQLNSLKPEDTAVYYCGWYDYWGLGTQVTVSS and give its recorded polyreactivity (PSR sort gate).
Return: low polyreactivity
